Molecular target: His-Tau40P301L Tau (UniProt P10636-8 1-441)
Sequence (P10636 other isoform, or with tags, fused parts or gaps limits assumed): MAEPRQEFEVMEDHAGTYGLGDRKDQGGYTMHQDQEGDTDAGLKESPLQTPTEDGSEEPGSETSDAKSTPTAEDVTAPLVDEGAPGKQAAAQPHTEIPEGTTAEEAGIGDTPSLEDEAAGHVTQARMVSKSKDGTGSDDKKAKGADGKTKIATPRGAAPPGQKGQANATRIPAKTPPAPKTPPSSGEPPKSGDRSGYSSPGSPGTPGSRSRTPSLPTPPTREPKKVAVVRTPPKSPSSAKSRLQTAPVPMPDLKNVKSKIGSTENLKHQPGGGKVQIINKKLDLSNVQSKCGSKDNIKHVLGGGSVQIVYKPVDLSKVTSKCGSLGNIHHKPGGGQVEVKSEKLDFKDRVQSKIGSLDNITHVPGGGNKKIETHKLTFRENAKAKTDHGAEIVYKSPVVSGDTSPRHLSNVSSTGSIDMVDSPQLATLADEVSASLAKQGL
Assay: cell-based or functional assay
The entries below come with measured IC50 (µM), Tau40 assay (ThT) values attached.
Give the quantity in µM, number only.

Record excerpt, results attached:
[
  {
    "binder": "WRIWIRAW",
    "scale unit": "µM",
    "IC50 (µM), Tau40 assay (ThT)": 3.54
  },
  {
    "binder": "RIWIRYW",
    "scale unit": "µM",
    "IC50 (µM), Tau40 assay (ThT)": 2.42
  },
  {
    "binder": "WRIRIRF",
    "scale unit": "µM",
    "IC50 (µM), Tau40 assay (ThT)": 10.8
  },
  {
    "binder": "RIRLYIW",
    "scale unit": "µM",
    "IC50 (µM), Tau40 assay (ThT)": 2.12
  },
  {
    "binder": "WRINIRYW",
    "scale unit": "µM",
    "IC50 (µM), Tau40 assay (ThT)": 7.45
  },
  {
    "binder": "WRIWIRYR",
    "scale unit": "µM",
    "IC50 (µM), Tau40 assay (ThT)": 2.64
  },
  {
    "binder": "RIWIRYWW",
    "scale unit": "µM",
    "IC50 (µM), Tau40 assay (ThT)": 2.28
  }
]

Query binder follows.
[Q] State the recorded IC50 (µM), Tau40 assay (ThT) for this entry: `WIRYWWRI`
[A] 3.69
